Cited source: paper PMC9072872

molecular target: TPST1 (Homo sapiens, UniProt O60507); construct: Human TPST1 (residues Lys43-Leu360) enzyme was purified as a recombinant protein; made in house; assay: Immunoblot of GST-CC4tide tyrosine sulfation by TPST1 (anti-sulfotyrosine antibody); assay type: biochemical; conditions: compound 400 μM, GST-CC4-tide 1 μg, TPST1 0.2 μg, PAPS 5 μM, 15 min
Measurement type: suppression of tyrosine sulfation (immunoblot)

Solved cases (5 shown):
# query: suppression of tyrosine sulfation (immunoblot) of entry Nc1ncnc2c1ncn2[C@H]1C[C@H](OP(=O)(O)O)[C@@H](Cn2cc(C(=O)O)nn2)O1 [Compound 8]
partial suppression

Try this molecule too: Nc1ncnc2c1ncn2[C@H]1C[C@H](O)[C@@H](Cn2cc(C(=O)OCc3ccccc3)nn2)O1 [Compound 9]
partial suppression

Try this molecule too: Nc1ncnc2c1ncn2[C@H]1C[C@H](OP(=O)(O)O)[C@@H](Cn2cc(P(=O)(O)O)nn2)O1 [Compound 12]
partial suppression

Try this molecule too: Nc1ncnc2c1ncn2[C@H]1C[C@H](OP(=O)(O)O)[C@@H](COP(=O)(O)O)O1 [2′-deoxy-PAP]
complete suppression

Try this molecule too: COC(=O)COC1CC(n2cnc3c(N)ncnc32)OC1COP(=O)(O)OCc1ccccc1 (stereo not drawn) [Compound 6]
complete suppression

Now turn to the next molecule.
# query: suppression of tyrosine sulfation (immunoblot) of entry Nc1ncnc2c1ncn2[C@H]1C[C@H](O)[C@@H](Cn2cc(P(=O)(O)OCc3ccccc3)nn2)O1 [Compound 13]
partial suppression

----------
Entries annotated with measured pIC50
target: HS2ST (Gallus gallus)
Sequence (Q76KB1 whole entry): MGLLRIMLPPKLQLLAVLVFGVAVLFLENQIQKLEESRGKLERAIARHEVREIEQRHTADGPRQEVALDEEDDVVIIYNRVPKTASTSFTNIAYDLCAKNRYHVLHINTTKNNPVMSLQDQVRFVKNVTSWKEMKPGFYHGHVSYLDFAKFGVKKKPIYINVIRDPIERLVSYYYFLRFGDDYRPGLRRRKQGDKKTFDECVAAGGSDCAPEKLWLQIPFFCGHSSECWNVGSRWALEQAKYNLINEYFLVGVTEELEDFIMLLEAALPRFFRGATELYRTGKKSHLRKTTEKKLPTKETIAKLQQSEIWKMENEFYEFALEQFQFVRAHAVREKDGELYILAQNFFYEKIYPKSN
// pIC50 is dimensionless: -log10 of concentration (M)

Identify the measured pIC50 of Nc1ncnc2c1ncn2[C@@H]1O[C@H](COP(=O)(O)O)[C@@H](OP(=O)(O)O)[C@H]1O [PAP, adenosine 3′,5′-diphosphate, reference compound] for HS2ST (Gallus gallus).
5.70

Further cases:
Identify the measured pIC50 of Nc1ncnc2c1ncn2[C@H]1C[C@H](OP(=O)(O)O)[C@@H](COP(=O)(O)O)O1 [2′-deoxy-PAP] for HS2ST (Gallus gallus).
4.90

----------
Target: TPST1 (Homo sapiens, UniProt O60507)
Construct: Human TPST1 (residues Lys43-Leu360) enzyme was purified as a recombinant protein
Sequence (O60507 43-360): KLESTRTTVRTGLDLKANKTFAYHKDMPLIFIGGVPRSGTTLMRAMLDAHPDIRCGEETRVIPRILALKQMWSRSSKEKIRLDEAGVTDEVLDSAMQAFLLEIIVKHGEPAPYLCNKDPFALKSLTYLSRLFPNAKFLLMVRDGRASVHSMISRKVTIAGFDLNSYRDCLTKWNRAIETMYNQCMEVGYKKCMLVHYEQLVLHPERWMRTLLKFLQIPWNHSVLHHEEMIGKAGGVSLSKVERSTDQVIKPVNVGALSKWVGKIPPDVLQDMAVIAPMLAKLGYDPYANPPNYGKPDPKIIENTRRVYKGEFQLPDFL
Assay: Microfluidic mobility shift sulfation assay, TPST1 (fluorescent CC4-tide substrate)
Conditions: read-out: IC50 against TPST1
pIC50: −log10 of the molar value.
Measurement type: pIC50

Solved cases (5 shown):
# query: pIC50 of entry Nc1ncnc2c1ncn2[C@H]1C[C@H](OP(=O)(O)O)[C@@H](Cn2cc(P(=O)(O)O)nn2)O1
3.52 to 4.00

Try this compound too: Nc1ncnc2c1ncn2[C@H]1C[C@H](O)[C@@H](Cn2cc(P(=O)(O)OCc3ccccc3)nn2)O1
3.52 to 4.00

Try this compound too: COC(=O)COC1CC(n2cnc3c(N)ncnc32)OC1COP(=O)(O)O (stereo not drawn)
3.52 to 4.00

Try this compound too: Nc1ncnc2c1ncn2[C@@H]1O[C@H](COP(=O)(O)O)[C@@H](OP(=O)(O)O)[C@H]1O [PAP, adenosine 3′,5′-diphosphate, reference compound]
5.82

Try this compound too: Nc1ncnc2c1ncn2[C@H]1C[C@H](OP(=O)(O)O)[C@@H](COP(=O)(O)O)O1
5.44

Now turn to the next compound.
# query: pIC50 of entry COC(=O)COC1CC(n2cnc3c(N)ncnc32)OC1COP(=O)(O)OCc1ccccc1 (stereo not drawn)
3.52 to 4.00
